targetEntity: T1, DLL3 target antigen coated on Octet SA tips (binning experiment) (Homo sapiens (Human), UniProt Q9NYJ7 27-492, Probably biotinylated for capture on streptavidin (SA) tips. The site is not stated.)
T1 sequence: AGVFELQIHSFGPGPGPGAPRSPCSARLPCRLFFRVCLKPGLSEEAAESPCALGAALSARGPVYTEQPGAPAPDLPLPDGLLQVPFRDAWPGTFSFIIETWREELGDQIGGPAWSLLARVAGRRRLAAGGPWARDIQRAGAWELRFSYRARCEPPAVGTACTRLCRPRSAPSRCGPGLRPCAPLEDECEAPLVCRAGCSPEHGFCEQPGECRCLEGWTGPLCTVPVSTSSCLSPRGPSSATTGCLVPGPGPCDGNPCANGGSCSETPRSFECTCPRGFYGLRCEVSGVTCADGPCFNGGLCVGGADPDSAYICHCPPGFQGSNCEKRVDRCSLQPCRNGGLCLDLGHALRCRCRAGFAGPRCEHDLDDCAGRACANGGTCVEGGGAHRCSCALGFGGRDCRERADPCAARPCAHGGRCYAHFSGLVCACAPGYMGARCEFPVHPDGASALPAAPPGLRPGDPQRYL
experimentNotes: Octet binning on DLL3-coated SA tips; competitor: 3HCE56
Experimental: Antibody binning experiments were carried out for 5 anti-DLL3 VHHs and an anti-human DLL3 BiTE (SEQ ID NO: 756). The target antigen was coated on a series of Octet SA tips. Each series of tips was first soaked in a periplasmic extract containing one specific VHH. After the response signals reached saturation, the tips were transferred to a mix of PEs containing again the first VHH (at the same concentration) plus a different VHH (termed secondary VHH) for each tip of the series. […]
propertyLabel: binning response (unit not given)

{"columns": ["binder", "reported"],
 "data": [
  ["3HCE4 anti-DLL3 VHH (VHH, In the binning assay it was used as a periplasmic extract) VHH: QVQLQESGGGLVQAGASLKLSCAVSGRAGSSYDMGWLRQAPGKEREFVAIITWSGNTAYKDSVKGRFIISRDNAKNTVYLEMNSLAPEDTAVYYCAAALSEKKYEYWGQGTQVTVSS", 407],
  ["2HCE117 anti-DLL3 VHH (VHH, In the binning assay it was used as a periplasmic extract) VHH: QVQLQESGGGLVQPGGSLRLSCAASGFTFSSYAMSWVRQAPGKGLEWVSDINSGGGSTYYADSVKGRFTISRDNAKNTLYLQMDSLKPEDTAVYYCATPFEIGSWGQGTQVTVSS", -207],
  ["anti-human DLL3 BiTE (bispecific antibody, also called DLL3 BiTEs) QVQLQESGPGLVKPSETLSLTCTVSGGSISSYYWSWIRQPPGKGLEWIGYVYYSGTTNYNPSLKSRVTISVDTSKNQFSLKLSSVTAADTAVYYCASIAVTGFYFDYWGQGTLVTVSSGGGGSGGGGSGGGGSEIVLTQSPGTLSLSPGERVTLSCRASQRVNNNYLAWYQQRPGQAPRLLIYGASSRATGIPDRFSGSGSGTDFTLTISRLEPEDFAVYYCQQYDRSPLTFGGGTKLEIK", 1500],
  ["2HCE27 anti-DLL3 VHH (VHH, In the binning assay it was used as a periplasmic extract; also called anti-DLL3 (2HCE27)) VHH: QVQLQESGGGLVQAGGSLRLSCAASGRTFRSYAMGWFRQAPGKEREFIAVIIMSDGSTSYADSVKGRFTISRDNAKNTLYLQMNSLKPEDTAVYYCAARRDYFTGVYDYWGQGTQVTVSS", 6500],
  ["3HCE87 anti-DLL3 VHH (VHH, In the binning assay it was used as a periplasmic extract) VHH: QVQLQESGGGLVQAGGSLRLSCAASGFIFDDYIIGWFRQAPGKEREFVAAISWSGSATAYADSVKGRFTISRDNAKNTLYLQMNTLKPEDTAVYYCAASSRGPYNSGSSYDYWGQGTQVTVSS", 204],
  ["3HCE56 anti-DLL3 VHH (VHH, In the binning assay it was used as a periplasmic extract) VHH: QVQLQESGGGLVQAGGSLRLSCAASGRTFSVDAMGWLRQAPGKEREFVVVIDWTGGSTAYADSVKGRFTISRDNARNTVYLQMNNLKPEDTGVYYCAARERSRTAYDYWGQGTQVTVSS", 0]
]}
